Quick list: melting point per entry.

Cn1nc(C=O)cc1-c1ccco1 = 62 to 64 °C
CC(C)c1ccc(C=C[N+](=O)[O-])cc1 = 35 to 38 °C
O=Cc1ccc(C=O)s1 = 114 to 117 °C

# query: melting point of entry Clc1ccc2[nH]c(C(Cl)(Cl)Cl)nc2c1
223 to 229 °C

# query: melting point of entry NNC(=O)c1ccccc1Oc1ccccc1
99 to 103 °C

###

property: melting point

Take a look at these entries with their results.
CCOC(=O)c1cn[nH]c1NC(=O)Nc1ccccc1 = 242 to 245 °C
Cc1ccc2sccc2c1 = 35 to 36 °C
Cn1c(S)nnc1-c1cccs1 = 153 to 156 °C
O=C(C=Cc1ccc(-c2ccc(Cl)cc2)o1)c1ccccc1 = 128 to 129 °C
Cc1nc(-c2cccc(Br)c2)no1 = 81 to 83 °C

# query: melting point of entry O=C(O)C1CCN(c2ncnc3ccsc23)CC1
248 to 249 °C
